test: plasmatic kinetics in rat after oral administration; conditions: rat, in vivo, po, 300 mg/kg
Readout kind: concentration at 2 h
Kindly format the answer as number then unit.

Inquiry: Reported concentration at 2 h, compound O=C([O-])c1ccccc1O.[Na+] [SODIUM SALICYLATE, sodium salicylate] : ____
Reply text: 534 µg/mL

* * *

test: plasmatic kinetics in rat after oral administration; conditions: rat, in vivo, po, 300 mg/kg
Readout kind: concentration at 1 h
Kindly format the answer as number then unit.

Inquiry: Reported concentration at 1 h, molecule O=C([O-])c1ccccc1O.[Na+] [SODIUM SALICYLATE, sodium salicylate] : ____
Reply text: 362 µg/mL
